Measured binding signal, listed per entry for reference.
Target: GST-Co-NF-kB (Capsaspora owczarzaki, UniProt F1ARL5 200-546)
Sequence: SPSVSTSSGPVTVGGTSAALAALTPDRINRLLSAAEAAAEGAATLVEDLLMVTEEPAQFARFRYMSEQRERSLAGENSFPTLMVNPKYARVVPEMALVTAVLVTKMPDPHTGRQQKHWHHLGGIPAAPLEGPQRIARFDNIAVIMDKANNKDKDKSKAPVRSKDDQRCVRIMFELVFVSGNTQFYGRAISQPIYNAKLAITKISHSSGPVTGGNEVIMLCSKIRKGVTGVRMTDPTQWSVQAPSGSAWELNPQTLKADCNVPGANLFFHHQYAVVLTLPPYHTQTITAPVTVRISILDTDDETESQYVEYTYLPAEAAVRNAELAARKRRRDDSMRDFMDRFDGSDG
Experiment: protein-binding microarray (PBM); PBM: ~300 nM protein, 6 mM HEPES pH 7.8, 80 mM KCl, 0.5 mM EDTA, 0.5 mM EGTA, 6% glycerol, 35 ng/ul poly-dIdC, 1% milk, 1 h, room temperature; Ap Aiptasia and Nv Nematostella (sea anemones) / Co Capsaspora / Aq Amphimedon (sponge) / Dm Drosophila / Hu human; RHD is the Rel homology domain; high values mean tight binding
Details: dsDNA, one strand shown

Seq text: CCGATTAACATCATTAGGGGAAGTGATGTTAATCGGGTCTTGATTCGCTTGACGCTGCTG
binding signal [z-score]: 3.41
//
Seq text: CCGATTAACATCAGGGGAAACAATGATGTTAATCGGGTCTTGATTCGCTTGACGCTGCTG
binding signal [z-score]: 8.67
//
Seq text: CCGATTAACATCACGGTTTCCCCTGATGTTAATCGGGTCTTGATTCGCTTGACGCTGCTG
binding signal [z-score]: 7.67
//
Seq text: CCGATTAACATCACCCCACCCCCTGATGTTAATCGGGTCTTGATTCGCTTGACGCTGCTG
binding signal [z-score]: 3.94
//
Seq text: CCGATTAACATCAAACGTTCCCCTGATGTTAATCGGGTCTTGATTCGCTTGACGCTGCTG
binding signal [z-score]: 6.66
//
Seq text: CCGATTAACATCAGGGCACCCCCTGATGTTAATCGGGTCTTGATTCGCTTGACGCTGCTG
binding signal [z-score]: 2.4
//
Seq text: CCGATTAACATCAGGGGATCCACTGATGTTAATCGGGTCTTGATTCGCTTGACGCTGCTG
binding signal [z-score]: 2.76
//
Seq text: CCGATTAACATCAAACTCCCCCGTGATGTTAATCGGGTCTTGATTCGCTTGACGCTGCTG
binding signal [z-score]: 7.66
//
Seq text: CCGATTAACATCACCGCCCCACGTGATGTTAATCGGGTCTTGATTCGCTTGACGCTGCTG
binding signal [z-score]: 1.4
//
Seq text: CCGATTAACATCAGGAGTATCCCTGATGTTAATCGGGTCTTGATTCGCTTGACGCTGCTG
binding signal [z-score]: 1.01
//
Seq text: CCGATTAACATCAAGGGGGTACCTGATGTTAATCGGGTCTTGATTCGCTTGACGCTGCTG
binding signal [z-score]: 2.65
//
Seq text: CCGATTAACATCAAAATACCCCCTGATGTTAATCGGGTCTTGATTCGCTTGACGCTGCTG
binding signal [z-score]: 7.21
//
Seq text: CCGATTAACATCAGGGGCAGTACTGATGTTAATCGGGTCTTGATTCGCTTGACGCTGCTG
binding signal [z-score]: 1.64
//
Seq text: CCGATTAACATCAAGCACCCCCTTGATGTTAATCGGGTCTTGATTCGCTTGACGCTGCTG
binding signal [z-score]: 1.76
//
Seq text: CCGATTAACATCACATTATCCCCTGATGTTAATCGGGTCTTGATTCGCTTGACGCTGCTG
binding signal [z-score]: 4.75
//
Seq text: CCGATTAACATCAGGGGGACCCCTGATGTTAATCGGGTCTTGATTCGCTTGACGCTGCTG
binding signal [z-score]: 4.63
//
Seq text: CCGATTAACATCAAATTGTCCCCTGATGTTAATCGGGTCTTGATTCGCTTGACGCTGCTG
binding signal [z-score]: 6.08
//
Seq text: CCGATTAACATCAGGGGATTCGATGATGTTAATCGGGTCTTGATTCGCTTGACGCTGCTG
binding signal [z-score]: 2.24
//
Seq text: CCGATTAACATCACCATTTTCCCTGATGTTAATCGGGTCTTGATTCGCTTGACGCTGCTG
binding signal [z-score]: 3.65
//
Seq text: CCGATTAACATCACCCTACAAGTTGATGTTAATCGGGTCTTGATTCGCTTGACGCTGCTG
binding signal [z-score]: 3.08
//
Seq text: CCGATTAACATCACCGTTTTCCCTGATGTTAATCGGGTCTTGATTCGCTTGACGCTGCTG
binding signal [z-score]: 4.03
//
Seq text: CCGATTAACATCACTTCGGGAAATGATGTTAATCGGGTCTTGATTCGCTTGACGCTGCTG
binding signal [z-score]: 2.89
//
Seq text: CCGATTAACATCAGGGAAAGTACTGATGTTAATCGGGTCTTGATTCGCTTGACGCTGCTG
binding signal [z-score]: 2.93
//
Seq text: CCGATTAACATCAGGGGGTGGTATGATGTTAATCGGGTCTTGATTCGCTTGACGCTGCTG
binding signal [z-score]: 2.91
//
Seq text: CCGATTAACATCAGAAATCCCCCTGATGTTAATCGGGTCTTGATTCGCTTGACGCTGCTG
binding signal [z-score]: 6.78
//
Seq text: CCGATTAACATCAAATCATTCCCTGATGTTAATCGGGTCTTGATTCGCTTGACGCTGCTG
binding signal [z-score]: 3.4
//
Seq text: CCGATTAACATCAAGGGAAGTCCTGATGTTAATCGGGTCTTGATTCGCTTGACGCTGCTG
binding signal [z-score]: 1.08
//
Seq text: CCGATTAACATCAGGCATTCCCATGATGTTAATCGGGTCTTGATTCGCTTGACGCTGCTG
binding signal [z-score]: 1.54
//
Seq text: CCGATTAACATCAAAATAGCCCCTGATGTTAATCGGGTCTTGATTCGCTTGACGCTGCTG
binding signal [z-score]: 1.88
//
Seq text: CCGATTAACATCAAACAGGGAAATGATGTTAATCGGGTCTTGATTCGCTTGACGCTGCTG
binding signal [z-score]: 2.47
//
Seq text: CCGATTAACATCAGATACCCCCCTGATGTTAATCGGGTCTTGATTCGCTTGACGCTGCTG
binding signal [z-score]: 4.8
//
Seq text: CCGATTAACATCAAGGGGGATATTGATGTTAATCGGGTCTTGATTCGCTTGACGCTGCTG
binding signal [z-score]: 5.64
//
Seq text: CCGATTAACATCACAACTCCCCCTGATGTTAATCGGGTCTTGATTCGCTTGACGCTGCTG
binding signal [z-score]: 6.16
//
Seq text: CCGATTAACATCAGGGGGCTTTATGATGTTAATCGGGTCTTGATTCGCTTGACGCTGCTG
binding signal [z-score]: 1.85
//
Seq text: CCGATTAACATCAAAACTTCCCCTGATGTTAATCGGGTCTTGATTCGCTTGACGCTGCTG
binding signal [z-score]: 9.44
//
Seq text: CCGATTAACATCACCGGAATTCCTGATGTTAATCGGGTCTTGATTCGCTTGACGCTGCTG
binding signal [z-score]: 1.36

Cited source for all entries: paper PMC5700166
